Measured mean signal by item
# Procedure details: modulation of C. elegans fzo-1 (AID 1259413);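 note: fzo-1 mutant C. elegans worms in liquid wells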
# Assay context: C. elegans fzo-1 modulator screen, mean read-out; stronger effect = higher value
Measure name: mean signal

- CS(=O)(=O)c1ccc(-c2cc(Br)sc2-c2ccc(F)cc2)cc1: 233
- CN(C)[C@@H]1C(=O)C(C(=O)NCN2CCCC2)=C(O)[C@@]2(O)C(=O)C3=C(O)c4c(O)cccc4[C@@](C)(O)C3CC12 (some centres not stated): 213
- COCC1=C(C(=O)OC(C)OC(=O)OC(C)C)N2C(=O)[C@@H](NC(=O)/C(=N\OC)c3csc(N)n3)[C@H]2SC1 (some centres not stated): 270
- CC(C)(C)NC(=O)[C@@H]1C[C@@H]2CCCC[C@@H]2CN1C[C@@H](O)[C@H](Cc1ccccc1)NC(=O)[C@H](CC(N)=O)NC(=O)c1ccc2ccccc2n1: 234
- CCC(=O)O[C@]1(C(=O)SCF)[C@H](C)C[C@H]2[C@@H]3C[C@H](F)C4=CC(=O)C=CC4(C)[C@@]3(F)[C@@H](O)CC21C (some centres not stated): 245
- C[C@@H]1C[C@H]2[C@@H]3C[C@H](F)C4=CC(=O)C(Cl)=CC4(C)[C@@]3(F)[C@@H](O)CC2(C)[C@@]1(O)C(=O)CO (some centres not stated): 273
- CCCC1O[C@@H]2C[C@H]3[C@@H]4CCC5=CC(=O)C=CC5(C)[C@H]4[C@@H](O)CC3(C)C2(C(=O)CO)O1 (some centres not stated): 259
- O=c1c(O[C@@H]2O[C@H](CO)[C@H](O)[C@H](O)[C@H]2O)c(-c2ccc(O)c(O)c2)oc2cc(O)cc(O)c12: 249
- CN(C)CCc1c[nH]c2ccc(Cn3cncn3)cc12: 236
- C=C1/C(=C\C=C2/CCCC3(C)[C@@H]([C@H](C)/C=C/[C@@H](O)C4CC4)CC[C@@H]23)C[C@@H](O)C[C@@H]1O (some centres not stated): 277
- COc1ccc(C[C@H](C)NC[C@@H](O)c2ccc(O)c(NC=O)c2)cc1: 235
- CC(=O)OCC(=O)[C@@]1(O)CC[C@H]2[C@@H]3CCC4=CC(=O)C=CC4(C)[C@H]3[C@@H](O)CC21C (some centres not stated): 224
- CC(=O)NC[C@H]1CN(c2ccc(N3CCOCC3)c(F)c2)C(=O)O1: 269
- COC(=O)Nc1nc2ccc(C(=O)c3ccc(F)cc3)cc2[nH]1: 249
- C#C[C@]1(O)CC[C@H]2[C@@H]3CCC4=Cc5oncc5CC4(C)[C@H]3CCC21C (some centres not stated): 250
- CCCCC(=O)O[C@H]1CC[C@H]2[C@@H]3CCc4cc(O)ccc4[C@H]3CCC12C (some centres not stated): 242
- CCOC(=O)c1ccc(OC(=O)CCCCCN=C(N)N)cc1: 243
- CC12CC[C@@H]3c4ccc(O)cc4CC[C@H]3[C@@H]1CC[C@@H]2O (some centres not stated): 233
- CCC[C@@H]1C[C@@H](C(=O)N[C@H]([C@@H](C)O)[C@H]2O[C@H](SC)[C@H](O)[C@@H](O)C2O)N(C)C1 (some centres not stated): 237
- CC(=O)[C@@]1(O)CC[C@H]2[C@@H]3C[C@H](C)C4=CC(=O)CC[C@]4(C)[C@H]3CC[C@@]21C: 243
- CC(=O)OC1C([N+]2(C)CCCCC2)C[C@H]2C3CC[C@H]4C[C@H](OC(C)=O)C([N+]5(C)CCCCC5)CC4(C)[C@H]3CCC12C (some centres not stated): 283
- Cc1cccc(CCN2CCC(C(=O)c3ccc(NS(C)(=O)=O)cc3)CC2)n1: 229
- CC(=O)OCC(=O)[C@@]1(O)CC[C@H]2[C@@H]3CCC4=CC(=O)CCC4(C)[C@H]3[C@@H](O)CC21C (some centres not stated): 278
- O=C(O)C[C@H](O)C[C@H](O)/C=C/c1c(C2CC2)nc2ccccc2c1-c1ccc(F)cc1: 212
- CC(=O)N1CCN(c2ccc(OC[C@H]3CO[C@](Cn4ccnc4)(c4ccc(Cl)cc4Cl)O3)cc2)CC1: 283
- CNCC[C@@H](Oc1ccccc1C)c1ccccc1: 246
- CSc1nc2cc(Oc3cccc(Cl)c3Cl)c(Cl)cc2[nH]1: 206
- C[C@H]1O[C@H](O[C@H]2[C@H](O)[C@@H](O)[C@@H](O[C@H]3[C@H](O)[C@@H](O)C(O)O[C@@H]3CO)O[C@@H]2CO)[C@H](O)[C@@H](O)[C@@H]1N[C@H]1C=C(CO)[C@@H](O)[C@H](O)[C@H]1O (some centres not stated): 228
- CN1CC(=O)N2[C@H](c3ccc4c(c3)OCO4)c3[nH]c4ccccc4c3C[C@@H]2C1=O: 261
- C#C[C@]1(O)CC[C@H]2[C@@H]3CCc4cc(OC)ccc4[C@H]3CCC21C (some centres not stated): 241
- C#C[C@]1(OC(C)=O)CC[C@H]2[C@@H]3CCC4=CC(=O)CC[C@@H]4[C@H]3CCC21C (some centres not stated): 228
- CO[C@H]1C=CO[C@@]2(C)Oc3c(C)c(O)c4c(O)c(c(/C=N/N5CCN(C6CCCC6)CC5)c(O)c4c3C2=O)NC(=O)/C(C)=C\C=C[C@H](C)[C@H](O)[C@@H](C)[C@@H](O)[C@@H](C)[C@H](OC(C)=O)[C@@H]1C: 288

====

# Procedure details: sensitizers of A549 cells to miR-34 induction, primary screen, imaging, A549 dox-inducible miR-34, nuclei and caspase counts (AID 1347080)
# Assay context: A549 miR-34 inducible, Hoechst nuclei count, 48 h; measured here: total cells with miR-34 induction; stronger effect = lower value
Measure name: cell count

• CCOc1cc(C(=O)Nc2ccc(Cl)c(-c3nc4ccccc4[nH]3)c2)cc(OCC)c1OCC = 5960
• CC(C)(C)NCC(O)COc1cccc2c1CCCC2=O (configuration not stated) = 11300
• Cc1oc(=O)oc1CN1CCN(c2cc3c(cc2F)c(=O)c(C(=O)O)c2n3C(C)C2)CC1 (configuration not stated) = 9060
• O=C1C(Cl)=C(NCCN2CCOCC2)C(=O)c2ncccc21 = 1390
• Cc1[nH]c(/C=C2\C(=O)Nc3ccc(S(=O)(=O)Cc4c(Cl)cccc4Cl)cc32)c(C)c1C(=O)N1CCC[C@@H]1CN1CCCC1 = 5950
• N[C@@H](CO)c1ccccc1 = 5440
• CO[C@H]1C[C@H](O[C@H]2[C@H](C)[C@@H](OC3O[C@H](C)C[C@H](N(C)C)[C@H]3O)[C@@H](C)C[C@]3(CO3)C(=O)[C@H](C)[C@@H](O)[C@@H](C)[C@@H](C)OC(=O)[C@@H]2C)O[C@@H](C)[C@@H]1O (some centres not stated) = 10700
• CC1c2cccc(O)c2C(O)=C2C(=O)C3(O)C(O)=C(C(N)=O)C(=O)C(N(C)C)C3C(O)C21 (configuration not stated) = 2090
• NC(=O)C1CCCN1C(=O)C(Cc1cnc[nH]1)NC(=O)C1CCC(=O)N1 (configuration not stated) = 8800
• CC(CCC(=O)O)[C@H]1CCC2C3C(=O)C[C@@H]4CC(=O)CC[C@]4(C)C3CC(=O)[C@@]21C (some centres not stated) = 11900
• CO/N=C(/C(=O)N[C@@H]1C(=O)N2C(C(=O)O)=C(COC(C)=O)CS[C@H]12)c1csc(N)n1 = 11200
• CCCC(=O)O[C@]1(C(=O)CO)CCC2[C@@H]3CCC4=CC(=O)CC[C@]4(C)C3[C@@H](O)C[C@@]21C (some centres not stated) = 7610
• CC(=O)OCC(=O)[C@@]1(O)[C@H](OC(C)=O)CC2C3CCC4=CC(=O)C=C[C@]4(C)[C@@]3(F)[C@@H](O)C[C@@]21C (some centres not stated) = 7630
• CCC(CC)O[C@@H]1C=C(C(=O)OC)C[C@H](N)[C@H]1NC(C)=O = 8740
• CS(=O)(=O)c1ccc(C(O)[C@H](CF)NC(=O)C(Cl)Cl)cc1 (some centres not stated) = 10700
• C[C@H]1CC2C([C@@H](O)C[C@@]3(C)C2CC[C@]3(O)C(=O)CO)[C@@]2(C)C=CC(=O)C=C12 (some centres not stated) = 7440
• CC1=C(/C=C/C(C)=C/C=C/C(C)=C/C=C/C=C(C)/C=C/C=C(C)/C=C/C2=C(C)C(=O)CCC2(C)C)C(C)(C)CCC1=O = 10100

====

# Procedure details: antimalarial activity against Dd2 strain (AID 2302);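 note: 0% = DMSO untreated growth and 100% = chloroquine plus artemisinin killed control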
# Assay context: P. falciparum Dd2 in RBCs, LDH growth readout, 72 h; at 2 µM
Calls of active or inactive are those of the source.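 How the source made its calls: active means growth inhibition above 50% at the single 2 µM test dose, taken to imply half-maximal potency below 2 µM; inactive means the rest.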
Outcomes: 1 for active, -1 for inactive

- CC(C)(C(=O)NCCC1CCN(CCCCCNC(=O)/C=C/c2ccc(Cl)c(Cl)c2)CC1)c1ccc(Cl)cc1: -1
- Cc1[nH]c(C)c(-c2ccc(Oc3ccc(F)cc3)cc2)c(=O)c1Br: 1
- CC(C)(CNC(=O)[C@@H]1CCCN(CCOc2ccc(F)c(F)c2)C1)c1nc(-c2ccc(Cl)c(O)c2)c(-c2ccncc2)[nH]1: 1
- CCCc1cc(Cc2cnc(N)nc2N)c2cccnc2c1OC: -1
- N#Cc1cccc(C(=O)Nc2ccc(-c3cccc(CN4CCC(O)CC4)c3)cc2)c1: 1
- CCCCCCCN(Cc1ccc(OC(C)(C)C(=O)OCC)cc1)C(=O)Cc1ccc(F)cc1F: 1
- c1ccc(Oc2ccc(Nc3ccnc4cc(-c5cccc(CNCCN6CCOCC6)c5)ccc34)cc2)cc1: 1
- O=C(Nc1ccc(Cn2ncc(N3CCCNCC3)c(Cl)c2=O)cc1)Nc1cc(C(F)(F)F)cc(C(F)(F)F)c1: -1
- CC(C)n1c(C(C)(C)C)cc2c3c(N)nc(N)nc3ccc21: 1
- c1cc(COc2ccc(C3=NCCN3)cc2)nc(COc2ccc(C3=NCCN3)cc2)c1: 1
- CC(C)c1ccc(NC(=O)c2cccc(CN3CCCN(Cc4cccc(O)c4)CC3)c2)cc1: -1
- CCN1CCN(c2cc(C)c3cc(NC(=O)c4cccc([N+](=O)[O-])c4)ccc3n2)CC1: 1
- CCCCCCn1ccc2c3c(N)nc(N)nc3ccc21: 1
- O=C(CCCCCNC(=O)c1ccc(O)c(-c2ccc(Cl)c(Cl)c2)c1)NCCc1ccc(Cl)c(Cl)c1: -1
- CCC(C)NC(=O)Nc1ccc(-c2cccc(-c3nc4c(C)cccc4[nH]3)c2)cc1 (stereo not drawn): 1
- CC(C)c1ccc(O)cc1Nc1ccnc2ccc(C(F)(F)F)cc12: 1
- COc1ccc(Cc2cnc3nc(N)nc(N)c3c2C)cc1OC: 1
- CCOc1c(CNCCCNc2nc3ccccc3[nH]2)cc(Br)cc1OC: -1
- Cc1oc(-c2ccc(Cl)cc2)cc1C(=O)NCCC1CCN(CCCCCNC(=O)/C=C/c2ccc(Cl)c(Cl)c2)CC1: 1
- Cn1c(=O)c(-c2c(Cl)cccc2Cl)cc2cnc(Nc3ccc(N4CCOCC4)cc3)nc21: 1
- C=C(C)Cn1cc(C2CCN(CCN3CCC(CNC(=O)c4ccc(-c5ccc(C#N)cc5)cc4)CC3)CC2)c2ccccc21: 1
- CC(=O)Nc1cccc(Nc2nccc(-c3c(-c4cccc(NC(=O)c5c(F)cccc5F)c4)nn4ncccc34)n2)c1: 1
- O=C(NCc1cccc(F)c1)Nc1cccc(-c2cccc(-c3nc4ccc(C(F)(F)F)cc4[nH]3)c2)c1: -1
- CCN(CC)CCON=Cc1cc(C)c2[nH]c3ccc(OCc4ccccc4)cc3c2c1C: -1
- CCOc1cc(C(C)C)ccc1C1CCN(CCCCNC(=O)c2ccc(NC(=O)c3ccc(Cl)cc3)cc2)CC1: 1
- Clc1cc(Nc2ccnc3ccc(Br)cc23)ccc1Oc1ccc2ccccc2c1Cl: 1
- c1ccc(CNc2nc(NCCc3cnc[nH]3)nc(N3CCCC4CCCCC43)n2)cc1 (stereo not drawn): 1
- Nc1nc(N)c2c(ccc3c2ccn3Cc2ccc3c(c2)OCO3)n1: 1
- Cc1onc(-c2c(Cl)cccc2Cl)c1C(=O)NC1=NC(C)(C)ON1c1ccccc1: -1
- C[C@@H](NC(=O)c1nn(-c2ccc(Cl)cc2)c(=O)c2ccccc12)C(C)(C)C: -1
- O=C(NCCc1ccccc1)N(Cc1ccccc1-c1cccc(CNCc2ccc3c(c2)OCO3)c1)C1CCN(Cc2ccccc2)CC1: 1
- CCCc1cc(Cc2cnc(N)nc2N)cc(CCC)c1OCCCCC(=O)OC: -1
- CC(C)(C)c1ccc(Cc2cccc3nc(N)nc(N)c23)cc1: 1
- O=C(NC1CCN(Cc2ccccc2O)C1)c1ccc(Cl)c(Cl)c1 (stereo not drawn): 1
- CC(=O)Nc1cccc(C(=O)Nc2ccc(-c3cccc(-c4nc5ccc(F)cc5[nH]4)c3)cc2)c1: -1
- O=S(=O)(NCCN1CCCC1)c1cccc(-c2cccc(CNCCc3cccs3)c2)c1: -1
- CCC(C)NC(=O)Cn1c2ncccc2c(=O)n1-c1ccc(C)cc1 (stereo not drawn): 1
- CN(C)CCCN1C(=O)c2[nH]nc(-c3ccc(Cl)cc3O)c2C1c1ccc(Cl)cc1 (stereo not drawn): -1
